Entries annotated with measured AmyQ secretion efficiency
- System: Bacillus subtilis DB104 (SP-AmyQ fusion secretion)
- TEST_DETAILS: AmyQ secretion efficiency, weighted average sort bin (1 = best secretion, 10 = worst) (bin number (weighted average, 1-10)); higher = lower secretion efficiency

[
  {
    "BIOSEQUENCE": "MRKTIFAFLTGLMMFGTITACSASPD",
    "AmyQ secretion efficiency": 5.81
  },
  {
    "BIOSEQUENCE": "MSRIRIPMTLALGAALTIAPLSFASAEEN",
    "AmyQ secretion efficiency": 3.2
  },
  {
    "BIOSEQUENCE": "MKRIRIPMTLALGAALTIAPLSFASVEEN",
    "AmyQ secretion efficiency": 6.71
  },
  {
    "BIOSEQUENCE": "MKKTSGTKYKCQSLILSVLAAPPSGAKAESV",
    "AmyQ secretion efficiency": 7.18
  },
  {
    "BIOSEQUENCE": "MKSKWMSGLLLVAVGFSFTQVMVHQGET",
    "AmyQ secretion efficiency": 6.96
  },
  {
    "BIOSEQUENCE": "MKRTWNTCLTALLSVLLVAGSVPFHAEAKKP",
    "AmyQ secretion efficiency": 2.37
  },
  {
    "BIOSEQUENCE": "MKLAKRVSALTPSTTLAITQKAKEL",
    "AmyQ secretion efficiency": 5.63
  },
  {
    "BIOSEQUENCE": "MSKWLIIAVSLAIAIVLFMYTKGEAKAAGM",
    "AmyQ secretion efficiency": 7.49
  },
  {
    "BIOSEQUENCE": "MKKQRKIITATTAVVLGSTLFAGAASAQSI",
    "AmyQ secretion efficiency": 1.81
  },
  {
    "BIOSEQUENCE": "MLKKKWMVGLLAGCLAAGGFSYNAFKTEN",
    "AmyQ secretion efficiency": 5.95
  },
  {
    "BIOSEQUENCE": "MKSKWMSGLLLVAVGFSFTQVMVHLGET",
    "AmyQ secretion efficiency": 7.17
  },
  {
    "BIOSEQUENCE": "MKKRLIAPMLLSAASLAFFAMSGSSQAAAY",
    "AmyQ secretion efficiency": 4.08
  },
  {
    "BIOSEQUENCE": "MKKAAAVLLSLGLVFFLLTSGFSYGAGHVAEAKTK",
    "AmyQ secretion efficiency": 3.03
  },
  {
    "BIOSEQUENCE": "MLCVMMLLFSAIASFPVSAQAASR",
    "AmyQ secretion efficiency": 6.18
  },
  {
    "BIOSEQUENCE": "MKLRKVLTGSVLSLGLLVSASPAFAEEE",
    "AmyQ secretion efficiency": 2.06
  },
  {
    "BIOSEQUENCE": "MPGKSAVLLSLIMLIAGFLISFSFQM",
    "AmyQ secretion efficiency": 7.65
  }
]

====

- Tested on: Bacillus subtilis DB104 (SP-AmyQ fusion secretion)
- TEST_DETAILS: AmyQ secretion efficiency, weighted average sort bin (1 = best secretion, 10 = worst) (bin number (weighted average, 1-10)); higher = lower secretion efficiency
OBSERVABLE: AmyQ secretion efficiency

[
  {
    "BIOSEQUENCE": "MKRLFMKASLVLFAVVFVFAVKGADEEDEEEAKAETH",
    "OBSERVABLE": "AmyQ secretion efficiency",
    "RESULT": 7.15
  },
  {
    "BIOSEQUENCE": "MFNRLFRVCFLAALIMAFTLPNSQYAQKP",
    "OBSERVABLE": "AmyQ secretion efficiency",
    "RESULT": 7.49
  },
  {
    "BIOSEQUENCE": "MKKLLAAGIIGLLTVTVFVTSIASPSFAAEK",
    "OBSERVABLE": "AmyQ secretion efficiency",
    "RESULT": 2.51
  }
]

====

- Test system: Bacillus subtilis DB104 (SP-AmyQ fusion secretion)
- TEST_DETAILS: AmyQ secretion efficiency, weighted average sort bin (1 = best secretion, 10 = worst) (bin number (weighted average, 1-10)); higher = lower secretion efficiency
OBSERVABLE: AmyQ secretion efficiency

[
  {
    "BIOSEQUENCE": "MTSSLIGFLVLVPALIMSGITLIEANKK",
    "TARGET_UNDER_TEST": "Bacillus subtilis DB104 (SP-AmyQ fusion secretion)",
    "RESULT": 3.95
  },
  {
    "BIOSEQUENCE": "MRSYIKVKKMCFLGLILFVPTALADNS",
    "TARGET_UNDER_TEST": "Bacillus subtilis DB104 (SP-AmyQ fusion secretion)",
    "RESULT": 3.9
  },
  {
    "BIOSEQUENCE": "MRFTKFMSIVVGFLSVLGLAAVFPLTAQAEKA",
    "TARGET_UNDER_TEST": "Bacillus subtilis DB104 (SP-AmyQ fusion secretion)",
    "RESULT": 2.72
  },
  {
    "BIOSEQUENCE": "MKKLLAAGIIGLLTVQTDQPSFAAEK",
    "TARGET_UNDER_TEST": "Bacillus subtilis DB104 (SP-AmyQ fusion secretion)",
    "RESULT": 4.21
  },
  {
    "BIOSEQUENCE": "MKKQIITATTAVVLGSTLFAGAASAKRK",
    "TARGET_UNDER_TEST": "Bacillus subtilis DB104 (SP-AmyQ fusion secretion)",
    "RESULT": 2.25
  },
  {
    "BIOSEQUENCE": "MKKSQYFIVFICFFVLFSVHPIAAARADS",
    "TARGET_UNDER_TEST": "Bacillus subtilis DB104 (SP-AmyQ fusion secretion)",
    "RESULT": 3.7
  },
  {
    "BIOSEQUENCE": "MLKKKWMVGLLAGCLAAGGFSYNAFAKRK",
    "TARGET_UNDER_TEST": "Bacillus subtilis DB104 (SP-AmyQ fusion secretion)",
    "RESULT": 5.47
  },
  {
    "BIOSEQUENCE": "MKSKGSIMACLILFSFTITTFINTETRSAFSN",
    "TARGET_UNDER_TEST": "Bacillus subtilis DB104 (SP-AmyQ fusion secretion)",
    "RESULT": 8.47
  },
  {
    "BIOSEQUENCE": "MFFKKTVVSALSISALALSVSGVASAHEI",
    "TARGET_UNDER_TEST": "Bacillus subtilis DB104 (SP-AmyQ fusion secretion)",
    "RESULT": 3
  },
  {
    "BIOSEQUENCE": "MGTTIVAGLAVSAVVGSSMAAAPAEAKTI",
    "TARGET_UNDER_TEST": "Bacillus subtilis DB104 (SP-AmyQ fusion secretion)",
    "RESULT": 6.13
  }
]

====

Entries annotated with measured AmyQ secretion efficiency
- Tested on: Bacillus subtilis DB104 (SP-AmyQ fusion secretion)
- TEST_DETAILS: AmyQ secretion efficiency, weighted average sort bin (1 = best secretion, 10 = worst) (bin number (weighted average, 1-10)); higher = lower secretion efficiency
OBSERVABLE: AmyQ secretion efficiency

[
  {
    "BIOSEQUENCE": "MRKKRVITCVMAASLTLGSLLPAGYATADDE",
    "RESULT": 4.08
  },
  {
    "BIOSEQUENCE": "MKVLLSALLLLLFAFEPSASVKKL",
    "RESULT": 6.34
  },
  {
    "BIOSEQUENCE": "MRKRKKLSVAVAASFMSLSISLPGVQAAEG",
    "RESULT": 1.73
  },
  {
    "BIOSEQUENCE": "MKKGIRFLLVSFVLFFALSTGITGVQAAPA",
    "RESULT": 2.35
  },
  {
    "BIOSEQUENCE": "MLKKKWMVGLLAGCLAAGGFSYNAFCTEN",
    "RESULT": 6.56
  },
  {
    "BIOSEQUENCE": "MHLIRAAGAVCLAVVLIAGCRKNSVQHQAEGENT",
    "RESULT": 5.67
  },
  {
    "BIOSEQUENCE": "MKRIRIPMTLALGAALTIAPLSASAEEN",
    "RESULT": 2.88
  },
  {
    "BIOSEQUENCE": "MNKFLKSNFRYYTTGALGISLLASSNFIKASND",
    "RESULT": 7
  },
  {
    "BIOSEQUENCE": "MKKRFFGPIILAFILFLFSSLAGAIAIPS",
    "RESULT": 6.16
  },
  {
    "BIOSEQUENCE": "MKRIRIPMTLALGAALTIAPLSFASYEEN",
    "RESULT": 6.51
  },
  {
    "BIOSEQUENCE": "MRFTKVVGFLSVLGLAAVFPLTASSAAQAEKA",
    "RESULT": 1.25
  },
  {
    "BIOSEQUENCE": "MKKRLIGFLVLVPALIMSGITLIEANDD",
    "RESULT": 4.89
  },
  {
    "BIOSEQUENCE": "MFKKHMNNFTISLLIIFLLASAVLAKPIEAHTV",
    "RESULT": 3.28
  },
  {
    "BIOSEQUENCE": "MKNMSCKLVVSVTLFFSFLTIGPLLHAQNS",
    "RESULT": 1.77
  },
  {
    "BIOSEQUENCE": "MLKKIALTLCPAIVGSLLFFTAPASARKR",
    "RESULT": 6.88
  },
  {
    "BIOSEQUENCE": "MRFTKVVGFLSVLGLAAVFPLTAQAAKR",
    "RESULT": 5.46
  },
  {
    "BIOSEQUENCE": "MMKKGSLFFLLAGALTATVLFGTCAVDVPGIISPKTAEAASQ",
    "RESULT": 3.32
  },
  {
    "BIOSEQUENCE": "MKIRKILLSSALSFGMLISAVPALLAGT",
    "RESULT": 4.82
  },
  {
    "BIOSEQUENCE": "MGLGKKLSVAVAASFMSLSISLPGVAAGFVFVQAAEG",
    "RESULT": 4.93
  },
  {
    "BIOSEQUENCE": "MPYLKRVLLLLVTGLAVTATASAQTG",
    "RESULT": 1.97
  },
  {
    "BIOSEQUENCE": "MRPVFPLILSAVLFLSCFFGARQTEASLSKR",
    "RESULT": 3.68
  },
  {
    "BIOSEQUENCE": "MIVIKRKRKRIIVFLSVIQPQPS",
    "RESULT": 8.52
  },
  {
    "BIOSEQUENCE": "MRKKRTIFAFLTGLMMFGTITAASASPD",
    "RESULT": 4.56
  },
  {
    "BIOSEQUENCE": "MMKKLFHSTLIVLLFFSFFGVQPIHAAKK",
    "RESULT": 1.9
  },
  {
    "BIOSEQUENCE": "MKKVLMAFIICLSLILSVLAAPPSGAKEESV",
    "RESULT": 3.2
  },
  {
    "BIOSEQUENCE": "MNKKYFVLIVCIIFTSALFPTRRRVTAAQG",
    "RESULT": 3.61
  },
  {
    "BIOSEQUENCE": "MRHKIITFILAVVVIIIIGNMIGGGGGSEETSK",
    "RESULT": 7.2
  },
  {
    "BIOSEQUENCE": "MKKRKRRNFKRQGTQYKGLALMISLVPADVLAKST",
    "RESULT": 7.46
  },
  {
    "BIOSEQUENCE": "MKKSQYFIVFICFFVLFSVHPIAAAGADS",
    "RESULT": 3.85
  },
  {
    "BIOSEQUENCE": "MRKYTVIASILLSFLSVLSGGHHESKARRR",
    "RESULT": 7.19
  },
  {
    "BIOSEQUENCE": "MKKRLIAPKLLSAASLAFFAMSGSAQAAAY",
    "RESULT": 3.27
  },
  {
    "BIOSEQUENCE": "MRKVVGFLSVLGLAAVFPLTAQAEKA",
    "RESULT": 2.03
  },
  {
    "BIOSEQUENCE": "MTKRGIQAFAGGIILATAVLAAVFYLTDEDQAAAD",
    "RESULT": 6.91
  },
  {
    "BIOSEQUENCE": "MKVLLSALLLLLFAFEPSASGAKR",
    "RESULT": 4.45
  },
  {
    "BIOSEQUENCE": "MKRLCLWFTVFSLFLVLLPGKALGAVD",
    "RESULT": 3.84
  },
  {
    "BIOSEQUENCE": "MKKKQVMLALTAAAGLGLTAHSAPAAKAAPL",
    "RESULT": 2.01
  },
  {
    "BIOSEQUENCE": "MKRIRIPMTLALGAALTIAPLSFGSAEEN",
    "RESULT": 4.51
  },
  {
    "BIOSEQUENCE": "MKQGKFSVFLILLLMLTLVVRRRKKRKAEAASS",
    "RESULT": 7.96
  },
  {
    "BIOSEQUENCE": "MRKKLKWLSFKRRRKRLLFLFKYQFSNNDS",
    "RESULT": 8.72
  },
  {
    "BIOSEQUENCE": "MFLAKRVSALTPSTTLAITAKAKEL",
    "RESULT": 7.34
  },
  {
    "BIOSEQUENCE": "MKFVKRRIIALVTILMLSVTSLFAKKRRRAKAAEH",
    "RESULT": 7.85
  },
  {
    "BIOSEQUENCE": "MKKKQVMLALTAAAGLGLTALHSAPAPKAAPL",
    "RESULT": 6.78
  },
  {
    "BIOSEQUENCE": "MKKWMAGLFLAAAVLLCLMVPQQVQGASS",
    "RESULT": 3.15
  },
  {
    "BIOSEQUENCE": "MKKVLMAFIICLSLILSVLAAPPSGQKAESV",
    "RESULT": 7.08
  }
]
